conditions: in n-propanol, 288.15 K
measuredParameter: solubility (mole fraction)
Lab note: jot down the number only; don't add units.

input: Value lookup for solubility (mole fraction); key = O=C1c2ccccc2-c2ccc(Br)cc21
output: 0.000915

====

settings: in ethanol, 298.15 K
measuredParameter: solubility (mole fraction)
In your answer, state the number alone without any accompanying words.

input: Name the reported solubility (mole fraction) value associated with the molecule O=C1c2ccccc2-c2ccc(Br)cc21
output: 0.00101

====

conditions: in ethanol, 288.15 K
measuredParameter: solubility (mole fraction)
Write no unit; give the number alone.

input: # solubility (mole fraction) lookup, item O=C1c2ccccc2-c2ccc(Br)cc21
output: 0.000674

====

settings: in 1,4-dioxane, 318.15 K
measuredParameter: solubility (mole fraction)
Form: value (number only, do not type unit).

input: What solubility (mole fraction) value was documented for this compound, O=C1c2ccccc2-c2ccc(Br)cc21 ?
output: 0.0455

====

settings: in ethyl acetate, 298.15 K
measuredParameter: solubility (mole fraction)

input: What does the data say about its solubility (mole fraction)? Entry: O=C1c2ccccc2-c2ccc(Br)cc21
output: 0.0102

====

settings: in acetonitrile, 298.15 K
measuredParameter: solubility (mole fraction)
Write no unit; give the number alone.

input: Looking for the measured solubility (mole fraction) of O=C1c2ccccc2-c2ccc(Br)cc21 , can you help?
output: 0.00188

====

conditions: in n-propanol, 323.15 K
measuredParameter: solubility (mole fraction)
Please state the value as a number alone, without comment.

input: solubility (mole fraction) lookup needed for O=C1c2ccccc2-c2ccc(Br)cc21 , thanks.
output: 0.0035

====

conditions: in ethyl acetate, 278.15 K
measuredParameter: solubility (mole fraction)
# answer = number (no unit)

input: // query solubility (mole fraction) value for entry O=C1c2ccccc2-c2ccc(Br)cc21
output: 0.00515

====

details: in methyl acetate, 303.15 K
measuredParameter: solubility (mole fraction)
Answer field: number only, no words.

input: # solubility (mole fraction) lookup, item O=C1c2ccccc2-c2ccc(Br)cc21
output: 0.0105

====

conditions: in n-butyl acetate, 278.15 K
measuredParameter: solubility (mole fraction)
The response must contain the number and no unit.

input: Returns the measured solubility (mole fraction) for the input compound. Input: O=C1c2ccccc2-c2ccc(Br)cc21
output: 0.00637

====

details: in n-butyl acetate, 308.15 K
measuredParameter: solubility (mole fraction)

input: Fill blank: measured solubility (mole fraction) of the compound O=C1c2ccccc2-c2ccc(Br)cc21 is ____.
output: 0.019

====

conditions: in 1,4-dioxane, 283.15 K
measuredParameter: solubility (mole fraction)
Please give only the number in your answer, with no unit.

input: Which measured solubility (mole fraction) value corresponds to O=C1c2ccccc2-c2ccc(Br)cc21 ?
output: 0.0136

====

conditions: in methanol, 323.15 K
measuredParameter: solubility (mole fraction)
Enter the number alone.

input: Can you look up the measured solubility (mole fraction) of O=C1c2ccccc2-c2ccc(Br)cc21 for me?
output: 0.00157

====

conditions: in acetonitrile, 278.15 K
measuredParameter: solubility (mole fraction)
Format: numeric value only, no unit, no commentary.

input: Recorded solubility (mole fraction) of O=C1c2ccccc2-c2ccc(Br)cc21 , please.
output: 0.000793

====

settings: in ethanol, 293.15 K
measuredParameter: solubility (mole fraction)

input: Name the reported solubility (mole fraction) value associated with the compound O=C1c2ccccc2-c2ccc(Br)cc21
output: 0.000831

====

conditions: in acetonitrile, 283.15 K
measuredParameter: solubility (mole fraction)
A bare number is all that is needed in reply.

input: Look up solubility (mole fraction): O=C1c2ccccc2-c2ccc(Br)cc21
output: 0.001

====

conditions: in n-propanol, 308.15 K
measuredParameter: solubility (mole fraction)
Lab note: record the figure alone, no unit after it.

input: Which solubility (mole fraction) value belongs to O=C1c2ccccc2-c2ccc(Br)cc21 ?
output: 0.00208

====

details: in isopropanol, 288.15 K
measuredParameter: solubility (mole fraction)
Provide a numeric answer; units are not to be included.

input: Recorded solubility (mole fraction) for O=C1c2ccccc2-c2ccc(Br)cc21 , please?
output: 0.000604

====

settings: in methanol, 288.15 K
measuredParameter: solubility (mole fraction)
// print number alone

input: Fill in: solubility (mole fraction) of O=C1c2ccccc2-c2ccc(Br)cc21 is ___
output: 0.000329

====

conditions: in n-butanol, 283.15 K
measuredParameter: solubility (mole fraction)
// response body must contain only the number

input: Could you tell me which solubility (mole fraction) is on file for O=C1c2ccccc2-c2ccc(Br)cc21 ?
output: 0.00119

====

settings: in isopropanol, 313.15 K
measuredParameter: solubility (mole fraction)
I'd appreciate a reply containing only the number, no unit.

input: Find the recorded solubility (mole fraction) belonging to O=C1c2ccccc2-c2ccc(Br)cc21 and report it.
output: 0.00183

====

details: in 1,4-dioxane, 313.15 K
measuredParameter: solubility (mole fraction)

input: Quick one: solubility (mole fraction) of O=C1c2ccccc2-c2ccc(Br)cc21 ?
output: 0.0391

====

conditions: in n-butyl acetate, 303.15 K
measuredParameter: solubility (mole fraction)
Reply: number alone, nothing else.

input: Given the compound O=C1c2ccccc2-c2ccc(Br)cc21 , what is its reported solubility (mole fraction)?
output: 0.016

====

settings: in acetonitrile, 318.15 K
measuredParameter: solubility (mole fraction)

input: Tell me the measured solubility (mole fraction) of O=C1c2ccccc2-c2ccc(Br)cc21 , please.
output: 0.00389

====

conditions: in n-propanol, 313.15 K
measuredParameter: solubility (mole fraction)
Respond numerically, and do not add a unit to the figure.

input: I have this compound here, O=C1c2ccccc2-c2ccc(Br)cc21 , and I need its recorded solubility (mole fraction).
output: 0.0025

====

details: in ethanol, 283.15 K
measuredParameter: solubility (mole fraction)
Give a plain numeric answer without units written out.

input: Entry O=C1c2ccccc2-c2ccc(Br)cc21 has what solubility (mole fraction)?
output: 0.000546

====

conditions: in n-propanol, 298.15 K
measuredParameter: solubility (mole fraction)

input: Requested field: solubility (mole fraction). Item: O=C1c2ccccc2-c2ccc(Br)cc21
output: 0.00143

====

settings: in n-butanol, 303.15 K
measuredParameter: solubility (mole fraction)
Reply with the value as a number alone.

input: Fill blank: measured solubility (mole fraction) of the compound O=C1c2ccccc2-c2ccc(Br)cc21 is ____.
output: 0.00268

====

conditions: in ethanol, 308.15 K
measuredParameter: solubility (mole fraction)
Just the number, please, no unit attached.

input: Name the recorded solubility (mole fraction) for O=C1c2ccccc2-c2ccc(Br)cc21 .
output: 0.00146

====

conditions: in n-propanol, 293.15 K
measuredParameter: solubility (mole fraction)
Lab note: write the figure by itself, no unit.

input: Quick check: solubility (mole fraction) of O=C1c2ccccc2-c2ccc(Br)cc21 ?
output: 0.00116

====

conditions: in acetonitrile, 303.15 K
measuredParameter: solubility (mole fraction)
Write the value as a bare number.

input: I'd like to know its solubility (mole fraction). The compound in question is O=C1c2ccccc2-c2ccc(Br)cc21
output: 0.00227

====

conditions: in methanol, 298.15 K
measuredParameter: solubility (mole fraction)
Output: the number by itself.

input: Can you share its solubility (mole fraction)? I mean this molecule: O=C1c2ccccc2-c2ccc(Br)cc21
output: 0.000529

====

details: in methyl acetate, 323.15 K
measuredParameter: solubility (mole fraction)
Could you respond with only the numeric value?

input: Query: solubility (mole fraction); subject: O=C1c2ccccc2-c2ccc(Br)cc21
output: 0.0193

====

conditions: in n-propanol, 283.15 K
measuredParameter: solubility (mole fraction)
The reply should be a number, written without any unit.

input: Consider the compound O=C1c2ccccc2-c2ccc(Br)cc21 and give its measured solubility (mole fraction).
output: 0.000747

====

settings: in n-butanol, 298.15 K
measuredParameter: solubility (mole fraction)

input: Consider the compound O=C1c2ccccc2-c2ccc(Br)cc21 and give its measured solubility (mole fraction).
output: 0.00221

====

conditions: in ethyl acetate, 288.15 K
measuredParameter: solubility (mole fraction)

input: Dear colleague, I am looking for the recorded solubility (mole fraction) of the following molecule: O=C1c2ccccc2-c2ccc(Br)cc21
output: 0.00732

====

conditions: in methyl acetate, 278.15 K
measuredParameter: solubility (mole fraction)
Keep it simple and answer with nothing but the number.

input: I am curious: what solubility (mole fraction) value has been reported for O=C1c2ccccc2-c2ccc(Br)cc21 ?
output: 0.00408

====

conditions: in isopropanol, 278.15 K
measuredParameter: solubility (mole fraction)
Output spec: single numeric token, no unit.

input: // lookup solubility (mole fraction) for O=C1c2ccccc2-c2ccc(Br)cc21
output: 0.000365

====

settings: in n-propanol, 303.15 K
measuredParameter: solubility (mole fraction)
Lab note: write the figure by itself, no unit.

input: // returns reported solubility (mole fraction) for input O=C1c2ccccc2-c2ccc(Br)cc21
output: 0.00173

====

settings: in n-butyl acetate, 283.15 K
measuredParameter: solubility (mole fraction)
Please respond with just the number, no unit label.

input: Quick check: solubility (mole fraction) of O=C1c2ccccc2-c2ccc(Br)cc21 ?
output: 0.00757
